Quick reference: binding signal of the listed items.
TESTED TARGET: dAsCas12a E174R (Acidaminococcus sp., UniProt U2UMQ6 1-1307, E174R;D908A;E993A;D1235A)
TEST DESCRIPTION: Spec-seq (native PAGE EMSA with sequencing of bound and unbound); 25 mM Tris-HCl pH 7.4, 150 mM KCl, 5 mM MgCl2, 10% glycerol, 1 mM DTT, 40 ng/uL salmon sperm DNA; 400 nM Cas12a, 480 nM crRNA, 50 nM library, 37 C 1 h; native PAGE at room temperature; high values mean tight binding;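 note: relative affinity from the bound to unbound sequence frequency ratio in Spec-seq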
CONDITION PARAMETERS: protein: recombinant

BINDER	binding signal / lnKA
GTGA (dsDNA) DNA 1: GCTATCTAGTGCTCAGTACGCACTGGTGAAGGAAACTTCTGGCAGGACCAGGTCATGAGATCGGAAGAGCACACGTCTGAACTCCAGTCA DNA 2: TGACTGGAGTTCAGACGTGTGCTCTTCCGATCTCATGACCTGGTCCTGCCAGAAGTTTCCTTCACCAGTGCGTACTGAGCACTAGATAGC RNA: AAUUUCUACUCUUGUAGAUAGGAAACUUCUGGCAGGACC	-8.87
GATG (dsDNA) DNA 1: GCTATCTAGTGCTCAGTACGCACTGGATGAGGAAACTTCTGGCAGGACCAGGTCATGAGATCGGAAGAGCACACGTCTGAACTCCAGTCA DNA 2: TGACTGGAGTTCAGACGTGTGCTCTTCCGATCTCATGACCTGGTCCTGCCAGAAGTTTCCTCATCCAGTGCGTACTGAGCACTAGATAGC RNA: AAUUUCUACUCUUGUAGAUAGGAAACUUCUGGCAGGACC	-8.75
TTAC (dsDNA) DNA 1: GCTATCTAGTGCTCAGTACGCACTGTTACAGGAAACTTCTGGCAGGACCAGGTCATGAGATCGGAAGAGCACACGTCTGAACTCCAGTCA DNA 2: TGACTGGAGTTCAGACGTGTGCTCTTCCGATCTCATGACCTGGTCCTGCCAGAAGTTTCCTGTAACAGTGCGTACTGAGCACTAGATAGC RNA: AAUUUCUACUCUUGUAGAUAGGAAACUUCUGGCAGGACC	-6.79
TGCA (dsDNA) DNA 1: GCTATCTAGTGCTCAGTACGCACTGTGCAAGGAAACTTCTGGCAGGACCAGGTCATGAGATCGGAAGAGCACACGTCTGAACTCCAGTCA DNA 2: TGACTGGAGTTCAGACGTGTGCTCTTCCGATCTCATGACCTGGTCCTGCCAGAAGTTTCCTTGCACAGTGCGTACTGAGCACTAGATAGC RNA: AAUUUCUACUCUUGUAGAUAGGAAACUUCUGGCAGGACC	-8.93
ATGC (dsDNA) DNA 1: GCTATCTAGTGCTCAGTACGCACTGATGCAGGAAACTTCTGGCAGGACCAGGTCATGAGATCGGAAGAGCACACGTCTGAACTCCAGTCA DNA 2: TGACTGGAGTTCAGACGTGTGCTCTTCCGATCTCATGACCTGGTCCTGCCAGAAGTTTCCTGCATCAGTGCGTACTGAGCACTAGATAGC RNA: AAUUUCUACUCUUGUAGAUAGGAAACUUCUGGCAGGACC	-8.95
TACT (dsDNA) DNA 1: GCTATCTAGTGCTCAGTACGCACTGTACTAGGAAACTTCTGGCAGGACCAGGTCATGAGATCGGAAGAGCACACGTCTGAACTCCAGTCA DNA 2: TGACTGGAGTTCAGACGTGTGCTCTTCCGATCTCATGACCTGGTCCTGCCAGAAGTTTCCTAGTACAGTGCGTACTGAGCACTAGATAGC RNA: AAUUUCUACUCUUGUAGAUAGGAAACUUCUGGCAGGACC	-8.98
TTTT (dsDNA) DNA 1: GCTATCTAGTGCTCAGTACGCACTGTTTTAGGAAACTTCTGGCAGGACCAGGTCATGAGATCGGAAGAGCACACGTCTGAACTCCAGTCA DNA 2: TGACTGGAGTTCAGACGTGTGCTCTTCCGATCTCATGACCTGGTCCTGCCAGAAGTTTCCTAAAACAGTGCGTACTGAGCACTAGATAGC RNA: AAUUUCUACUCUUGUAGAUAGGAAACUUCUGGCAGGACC	-2.29
AATC (dsDNA) DNA 1: GCTATCTAGTGCTCAGTACGCACTGAATCAGGAAACTTCTGGCAGGACCAGGTCATGAGATCGGAAGAGCACACGTCTGAACTCCAGTCA DNA 2: TGACTGGAGTTCAGACGTGTGCTCTTCCGATCTCATGACCTGGTCCTGCCAGAAGTTTCCTGATTCAGTGCGTACTGAGCACTAGATAGC RNA: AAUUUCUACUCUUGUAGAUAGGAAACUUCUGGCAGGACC	-8.08
CATA (dsDNA) DNA 1: GCTATCTAGTGCTCAGTACGCACTGCATAAGGAAACTTCTGGCAGGACCAGGTCATGAGATCGGAAGAGCACACGTCTGAACTCCAGTCA DNA 2: TGACTGGAGTTCAGACGTGTGCTCTTCCGATCTCATGACCTGGTCCTGCCAGAAGTTTCCTTATGCAGTGCGTACTGAGCACTAGATAGC RNA: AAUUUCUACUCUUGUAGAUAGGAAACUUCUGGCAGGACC	-7.55
TTCC (dsDNA) DNA 1: GCTATCTAGTGCTCAGTACGCACTGTTCCAGGAAACTTCTGGCAGGACCAGGTCATGAGATCGGAAGAGCACACGTCTGAACTCCAGTCA DNA 2: TGACTGGAGTTCAGACGTGTGCTCTTCCGATCTCATGACCTGGTCCTGCCAGAAGTTTCCTGGAACAGTGCGTACTGAGCACTAGATAGC RNA: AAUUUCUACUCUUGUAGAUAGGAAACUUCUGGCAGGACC	-4.78
